Entries and their Ki values follow.
- Tgt: human VMAT2 (Homo sapiens (Human))
- Sequence (Q05940 whole entry): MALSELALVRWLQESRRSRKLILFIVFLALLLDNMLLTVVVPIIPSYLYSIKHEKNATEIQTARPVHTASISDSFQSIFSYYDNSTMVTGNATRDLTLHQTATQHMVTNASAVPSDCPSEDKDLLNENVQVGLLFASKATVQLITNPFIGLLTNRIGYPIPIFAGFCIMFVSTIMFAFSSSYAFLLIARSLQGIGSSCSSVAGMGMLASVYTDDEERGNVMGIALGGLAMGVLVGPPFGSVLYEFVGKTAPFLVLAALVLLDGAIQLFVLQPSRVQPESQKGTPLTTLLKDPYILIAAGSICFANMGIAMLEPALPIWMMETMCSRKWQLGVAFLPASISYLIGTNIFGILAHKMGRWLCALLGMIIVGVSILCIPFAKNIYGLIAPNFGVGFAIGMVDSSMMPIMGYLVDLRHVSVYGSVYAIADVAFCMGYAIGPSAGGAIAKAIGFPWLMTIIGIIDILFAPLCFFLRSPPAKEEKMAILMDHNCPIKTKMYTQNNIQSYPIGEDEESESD
- Experiment: VMAT2 radioligand binding, 3H-dihydrotetrabenazine competition on human platelet homogenate
- Assay setup: 10 nM 3H-dihydrotetrabenazine, human platelet homogenate, 25° C., 90 minutes; read-out: VMAT2 Ki
Reply numerically in nM, unit not repeated.

Observe how each entry below is paired with its result.
COc1cc2c(cc1OC[C@@H](C)O)CCN1C[C@@H](CC(C)(C)C)[C@H](O)C[C@H]21 4.8
COc1cc2c(cc1OCC1(F)COCCOC1)CCN1C[C@@H](CC(C)(C)C)[C@H](O)C[C@H]21 51

Fill in: Ki of COc1cc2c(cc1OCC(F)(F)F)CCN1C[C@H](CC(C)(C)C)[C@H](O)C[C@@H]21 is ___ 170

Fill in: Ki of COc1cc2c(cc1OCCOC1COC1)CCN1C[C@@H](CC(C)(C)C)[C@H](O)C[C@H]21 is ___ 336

----------
- Experiment: Stability of compounds in human liver microsomes
- Format: in vitro ADME
- Assay setup: both sexes, liver microsomes, pH 7.4; calculated from HLM half-life, human; read-out: HLM Scaled Intrinsic Clearance
Entries and their CLint scaled at 0.5 μM values follow.
Reply numerically in mL/min/kg, unit not repeated.

COc1cc2c(cc1OC[C@H](C)OC)CCN1C[C@@H](CC(C)(C)C)[C@H](O)C[C@H]21 25.5

Fill in: CLint scaled at 0.5 μM of CCOc1cc2c(cc1OC)[C@H]1C[C@@H](O)[C@H](CC(C)(C)C)CN1CC2 is ___ 32.9

Fill in: CLint scaled at 0.5 μM of COc1cc2c(cc1OCCCF)CCN1C[C@@H](CC(C)(C)C)[C@H](O)C[C@H]21 is ___ 31.8

----------
- Tgt: human VMAT2 (Homo sapiens (Human))
- Experiment: VMAT2 radioligand binding, 3H-dihydrotetrabenazine competition on human platelet homogenate
- Assay setup: 10 nM 3H-dihydrotetrabenazine, human platelet homogenate, 25° C., 90 minutes; read-out: VMAT2 Ki
Entries and their Ki values follow.

Compound	Recorded result
COc1cc2c(cc1OC)[C@H]1C[C@H](O)[C@H](CC(C)(C)C)CN1CC2	50 nM
COc1cc2c(cc1OCc1ccc(C#N)cn1)CCN1C[C@@H](CC(C)(C)C)[C@H](O)C[C@H]21	198 nM
COc1cc2c(cc1OCC1CC(O)(C(F)(F)F)C1)CCN1C[C@@H](CC(C)(C)C)[C@H](O)C[C@H]21 (stereo partly shown)	92 nM
COc1cc2c(cc1OCCN1CCC(F)(F)C1)CCN1C[C@@H](CC(C)(C)C)[C@H](O)C[C@H]21	37 nM
COc1cc2c(cc1OCC1(CC#N)CC1)CCN1C[C@@H](CC(C)(C)C)[C@H](O)C[C@H]21	25 nM
COc1cc2c(cc1OCC1(C#N)CC1)CCN1C[C@@H](CC(C)(C)C)[C@H](O)C[C@H]21	83 nM

Proceeding to the next compound to report its Ki.
Fill in: Ki of COc1cc2c(cc1OC)[C@H]1C[C@@H](O)[C@H](CC(C)(C)C)CN1CC2 is ___ 6.6 nM

----------
Entries and their HLM Predicted Systemic Clearance values follow.
- Experiment: Stability of compounds in human liver microsomes
- Type: in vitro ADME
- Assay setup: scaled from HLM half-life (Obach method), human
- Protocol: A test compound (0.5 μM) was incubated with pooled mixed gender liver microsomes from humans (0.5 mg/mL total protein) at 37° C. in the presence of an NADPH-generating system containing 50 mM, pH 7.4 potassium phosphate buffer, 3 mM magnesium chloride, 1 mM EDTA, 1 mM NADP, 5 mM glusose-6-phosphate, and 1 Unit/mL glucose-6-phosphate dehydrogenase. […] Aliquots of the resulting supernatant fractions were analyzed by LC-MS/MS monitoring for depletion of parent compound. […]
Reply numerically in mL/min/kg, unit not repeated.

Observe how each entry below is paired with its result.
COc1cc2c(cc1OCCc1ccc(C(F)(F)F)cc1)CCN1C[C@@H](CC(C)(C)C)[C@H](O)C[C@H]21 12.68
COc1cc2c(cc1OCC#N)CCN1C[C@@H](CC(C)(C)C)[C@H](O)C[C@H]21 6.97
COc1cc2c(cc1OCCOC1(C#N)CCC1)CCN1C[C@@H](CC(C)(C)C)[C@H](O)C[C@H]21 14.9

Proceeding to the next molecule to report its HLM Predicted Systemic Clearance.
Fill in: HLM Predicted Systemic Clearance of COc1cc2c(cc1OCC(F)F)CCN1C[C@@H](CC(C)(C)C)[C@@H](O)C[C@H]21 is ___ 3.09

----------
Entries and their CLint scaled at 0.5 μM values follow.
- Experiment: Stability of compounds in human liver microsomes
- Assay type: in vitro ADME
- Assay setup: both sexes, liver microsomes, pH 7.4; calculated from HLM half-life, human; read-out: HLM Scaled Intrinsic Clearance
Reply numerically in mL/min/kg, unit not repeated.

COc1cc2c(cc1OCCOCC#N)CCN1C[C@@H](CC(C)(C)C)[C@H](O)C[C@H]21 11.4

Fill in: CLint scaled at 0.5 μM of COc1cc2c(cc1OCC1CC1)CCN1C[C@@H](CC(C)(C)C)[C@H](O)C[C@H]21 is ___ 28.1

Fill in: CLint scaled at 0.5 μM of COc1cc2c(cc1OCc1ccccc1)CCN1C[C@@H](CC(C)(C)C)[C@H](O)C[C@H]21 is ___ 33.9

Fill in: CLint scaled at 0.5 μM of COc1cc2c(cc1OCC1CCN(C#N)CC1)CCN1C[C@@H](CC(C)(C)C)[C@H](O)C[C@H]21 is ___ 10.5

----------
- Experiment: Stability of compounds in human liver microsomes
- Type: in vitro ADME
- Assay setup: both sexes, liver microsomes, pH 7.4; calculated from HLM half-life, human; read-out: HLM Scaled Intrinsic Clearance
Observed property: CLint scaled at 0.5 μM

Observe how each entry below is paired with its result.
Compound	CLint scaled at 0.5 μM
COc1cc2c(cc1OC(C)C)CCN1C[C@@H](CC(C)(C)C)[C@H](O)C[C@H]21 [Compound 4-38]	21.5 mL/min/kg
COc1cc2c(cc1OC)[C@H]1C[C@@H](O)[C@H](CC(C)(C)C)CN1CC2 [Compound 5-1]	15.6 mL/min/kg
COc1cc2c(cc1OCCC(F)(F)F)CCN1C[C@@H](CC(C)(C)C)[C@H](O)C[C@H]21 [Compound 4-15]	4.05 mL/min/kg

Proceeding to the next compound to report its CLint scaled at 0.5 μM.
Fill in: CLint scaled at 0.5 μM of COc1cc2c(cc1OCc1cccc(F)c1)CCN1C[C@@H](CC(C)(C)C)[C@H](O)C[C@H]21 [Compound 4-64] is ___ 38 mL/min/kg

----------
- Experiment: Stability of compounds in human liver microsomes
- Assay type: in vitro ADME
- Assay setup: both sexes, pH 7.4; 0.5 μM compound, 0.5 mg/mL human liver microsomes, 37° C.; maxed at 420 minutes; read-out: HLM Elimination half-life (t1/2, min)
Entries and their half-life at 0.5 μM values follow.
Reply numerically in min, unit not repeated.

Observe how each entry below is paired with its result.
Compound	half-life at 0.5 μM [min]
COc1cc2c(cc1OCCN1CCC(F)(F)C1)CCN1C[C@@H](CC(C)(C)C)[C@H](O)C[C@H]21 [Compound 4-71]	33
COc1cc2c(cc1OCCOC(C)(C)C#N)CCN1C[C@@H](CC(C)(C)C)[C@H](O)C[C@H]21 [Compound 4-44]	46
COc1cc2c(cc1OC)[C@H]1C[C@@H](O)[C@H](CC(C)(C)C)CN1CC2 [Compound 5-1]	80
[2H]C([2H])([2H])C([2H])([2H])Oc1cc2c(cc1OC)[C@H]1C[C@@H](O)[C@H](CC(C)(C)C)CN1CC2 [Compound 4-40]	52
CC[C@H](O)COc1cc2c(cc1OC)[C@H]1C[C@@H](O)[C@H](CC(C)(C)C)CN1CC2 [Compound 4-68]	196

Proceeding to the next compound to report its half-life at 0.5 μM.
Fill in: half-life at 0.5 μM of COc1cc2c(cc1OCC1(O)CCC1)CCN1C[C@@H](CC(C)(C)C)[C@H](O)C[C@H]21 [Compound 4-25] is ___ 109

----------
- Experiment: Stability of compounds in human liver microsomes
- Assay type: in vitro ADME
- Assay setup: scaled from HLM half-life (Obach method), human
Observed property: HLM Predicted Systemic Clearance
Record the result as a number with its unit.

Observe how each entry below is paired with its result.
Molecule	HLM Predicted Systemic Clearance
COc1cc2c(cc1OCCOC(C#N)C1CC1)CCN1C[C@@H](CC(C)(C)C)[C@H](O)C[C@H]21 (stereo partly shown) [Compound 4-43]	15.5 mL/min/kg
COc1cc2c(cc1OCC1(O)CCC1)CCN1C[C@@H](CC(C)(C)C)[C@H](O)C[C@H]21 [Compound 4-25]	7.26 mL/min/kg
COc1cc2c(cc1OC)[C@H]1C[C@@H](O)[C@H](CC(C)(C)C)CN1CC2 [Compound 5-1]	8.77 mL/min/kg

Fill in: HLM Predicted Systemic Clearance of COc1cc2c(cc1OCCOC(C)(C)C#N)CCN1C[C@@H](CC(C)(C)C)[C@H](O)C[C@H]21 [Compound 4-44] is ___ 11.47 mL/min/kg
